# Assay procedure: yeast display, Sf9 membrane polyspecificity reagent, FACS + sequencing; frameworks hold sequencing errors
Observation type: polyreactivity (PSR sort gate)

1. QVQLVESGGGLVQAGGSLRLSCAASGFTFTQYAMGWYRPAPGKECELVAAISRSGGSTYYADSVKGRFTISRDNAKNTVYLQMTSLKPEDTPVYYCAADWRFRYDYWGQGTQVTVSS : high polyreactivity
2. QVQLVESGGGLVQAGGSLRLSCAASGFIFASYTMGWYRQAPGKERELVASISRRRGSTYYADSVKGRFTISRDIAKNTVYLQMNILKPEDTAVYYCAAERLTIDYDYWGQGTQVTVSS : high polyreactivity
3. QVQLVESGGGLVQAGGSLRLSCAASGLIFARYAMGWYRQAPGKERELVAAISSSGVSTDYADSVKGRFTISRDNAKNTVYLQMNSLKPEDTAVYYCAKRTGSRVRGGKYGYWGQGTQVTVSS : high polyreactivity
4. QVQLVESGGGLVQAGGSLRLSCAASGSTIPDNTMGWYRQAPGKEREFVAAISRIGGTYYADSVKGRFTISRDNAKNYVYLQMNSLKPEDTAVYDCNAYPQGLSGRYHGFDYWGQGTQVTVST : low polyreactivity
5. QVQLVESGGGLVQAGGSLRLSCDASGFIFLGNAMGWYRQAPGKERELVAAISSGGSTYADSVKGRFTISRDNAKNTVYLQMNSLKPEDTSVYYCAVERAFRAQNYHEYDYWGQGTQVTVSS : low polyreactivity
6. QVQLVESGGGLVHAGGSLRLSCAASGRTFYIYAMGWYRQAPGKERELVADITSGGSTYYADSVKGRFTISRDNAKNTVYLQMNSLKPEDTAVYYCAADWVTFYSYTEYDYWGQGTQVTVSS : low polyreactivity
7. QVQLVESGGGLVQAGGSLRLSCAASGSTFDYNAMGWYRQAPGKERELVAAISSTGGSTYYADSVKGRFTISRDNAKNTVYLQMNSLKPEDTAVYFCARYYAIVSGYYDDGYWGQGTQVTVSS : high polyreactivity
8. QVQLVESGGGLVQAGGSLRLSCAASGFTFSVYTMGWYRQAPGNERELVAALRVSSGGTFYADSVKGRFTISRDNAKNTVYLQRNSLKPEDTAVYYCAVDRYTYDPIFSVVRRYDYWGQGTQVTVSS : high polyreactivity
9. QVQLEESGGGLVQAGGSLRLSCAASGRTFGRNAMGWYRQAPGERELVAVISRGGSTYYADSVKGRFTISRDNAKNSVYLQMNSLIPEDTAVYYCNADTVYTRTAPYDYWGQGTQVTVSS : low polyreactivity
10. QVQLVESGGGLVQAGGSLRLSCAASGSIFDVNAMGWYRQAPGKEREMVAAISDSGGSTYYADSVKGRFTISRDNAKNTVYLQMNSLKPEDTAVYYCNAVWSWYNYYDFDYWGQGSQVTVSS : low polyreactivity
11. QAQLVESGGGLVQAGGSLRLSCAASGRTLAWYALGWYRQAPGKERELVADISSGGSTYYADSVKGRFTISRDNAKHTVYVQMNSLKPEDTAVYYCAARWRSWRYKDDYWGQGTQVTVSS : high polyreactivity
12. QVQLVETGGGLDQAGVSLRLSCAASGSIFGYNDMGWYRQAPGKERELVAAIDCSDDITYYADSVKGRFTISRDNAKNTVYLQMYSLKPEETAVYYCAAVYYYYQYWAHTYYAGMEYWGQGTQVTVSS : high polyreactivity
13. QVQLVESGGGVVQAGGSLRLSCAASGLIFRRYAMGWSRQAPGIDRELVAAISGNGGSTYYADSVKGRFTISRDNAKNTVYVQMTCLKPEDTAVYYCAARSLGIYNYWGQGTQVTVSS : high polyreactivity
14. QVQLVESGGGLVQAGGSLRLSCPASGSIFDVYTMGWYRQAPGKEMELVAAINTGGGSTYYADSVKGRFTISRDTAKNTVYLQMYSMKPEDTAVYSCAKEVSPYWTFDYWGQGTQVTVSS : low polyreactivity
15. QVQLVESGGGLVQAGGSLRLSCAASGRIFYSYGMGWYRQAPGKERELVATISIGGSTNYADSVKGRFTSSRDNAKNTVYLQMNSLKPEDTAVYYCNARAWFSYTSRRYTYWQEGYWGQGTQVTVSS : high polyreactivity
16. QVQLVESGGGLVQAGGSHRLSCAASGSTFIDYAMGWYRQAPGKERELVAAITNGGNTKYADSVKGRFTISRDNAKNTVYLQMNSLKPEDTAVYYCAREPSIFTPSYDYWGQGTQVTVSS : low polyreactivity
17. QVQLVESGGGFVQAGGSLRLSCAASGRIFVVNAMLWYRPAPAKESEFVAAISRSGGSTYYADSVKGRFTISRDKATNTVYLQMNSLKREDTAVYYCAADIVGFRTSGTYEYWGHGTQVTVSS : low polyreactivity
18. QVHLVESGGGLVQAGGSLRLSCAASGRTFKYYAMGWYRQAPGKERELVAAISSRGGSTYYADSVKGRFTISRDNAKNTVYLQMNSLKPEDTAVYYCAKGTYLSTSTVANDYWGQGTQGTVSS : high polyreactivity
19. QVQLVESGGGLVQAGGSLRLSCAASGFTFYSNAMGWYRQAPGKERELVAAISGSGGRTYYADSVKGRFTISRDNAKNTVYLQMNSLKPEDTAVYYCAAKFTTGYYYGVPRDYWGQGTQVTVSS : high polyreactivity
20. HVQLVESGGGLVQAGGSLRLTCAASGLTFSSYAMGWYRQAPGKERELVADITYRGGSTYYADSVKGRFTISRDNEKNTVYLQMNSLKPEDTAVYYCAARKKYRFDYWGQGTQVTVSS : high polyreactivity
21. QVQLVESGGGLVQAGGSLRLSCAASGSIFRTNTMGWYRQAPGKERELVAAITAIGDSTYYADSVKGRFTISRDNAKNTVYLQMNSLKPEDTAVYYCAAEKVSWGYHFYSSYDYWGQGTQVTVSS : low polyreactivity

###

# Assay procedure: yeast display, Sf9 membrane polyspecificity reagent, FACS + sequencing; frameworks hold sequencing errors
Observation type: polyreactivity (PSR sort gate)

1) QVQLVESGGGLVQAGGSLRLSCAASGGTLRRYAMGWYRQAPGKERELVAGITSGGSTDYADSVKGRFTISRDNAKNTVYLQMNSLKPEDTAVYYCAALVYRPTYGYIFDYWGQGTQVTVSS : high polyreactivity
2) QVQLLESGGGLVQAGGSLRLSCAASGSTFLANAMGWYRQAPGKERDLVAAISSSGGSTYYADSVKWRFTISRDNAKNTVYVQMNSLKPEDTAVYYCAAATASRYRLWGGYYYWGQGTQVTVSS : low polyreactivity
3) QVQLVESGGGLVQAGGSLRLSCAASGRIFRFNAMGWYRQAPGKERELVAAITGSGGTTFYADSVKGRFTISRDNAKNTVYLQMNSLKPEDTAVYYCNTLGNWRPVYNQPRYEYWGQGTQVTVSS : high polyreactivity
4) QVQLVESGGGLVQAGGSLRLSCAASGRIFARNAMGWYRQAPGKERELVADITSTGSTNYADSVKGRFTISRDNAMITVYLQMNSLKPEDTAVYYCAADYYTGYVWEDYYWGQGTQVTVSS : low polyreactivity
5) QVQLVESGGGLVHAGGSLRLSCAASGRTFYIYAMGWYRQAPGKERELVAAISKSGGRTYYADSVKGRITISRDNAKNTVYLQMNSLKPEDTAVYYCNKLVGDDTALYDYWGQGTQVTVSS : high polyreactivity
6) QVQLVESGGGLVQAGGSLRLSCAASGFTFPNYAMGWSRQAPGKERELVAAITSGGGRTNYSDSVKGRFTISRDTAKNTVYLQMNSLKPEDTAVYYCAAEYRYDYRVYSHLHVWRYDYWGQGTQVTVSS : low polyreactivity
7) QVQLVESGGGLVQAGGSLRLSCAASGSILKFNAMGWNRQAPGKERELVAAITRGTNTYYADSVKGRFTISRDNAKNTVYLQMNTLKPEDTAVYYCAARLPYNAIGYYYWGQGTQVTVSS : low polyreactivity
8) QVQLVESGGGLVQAGVSLRLSCAASGFTFAYYAMGWYRQAPGKERELVAAITSGGRTNYADSVKGRFTISRDNAKNTGYLQMISLKAEDTAVSYCAKYRRGGSRHYSVFNHDYWGLGTQVTVSS : high polyreactivity
9) QVQLVESGGGLVQAGGSLRLSCAASGSIFSRNAMAWYRQAPGKERELVAAISGSGGSTYYADSVKGRFTISRDNAKNTVYLQMNSLKPEDTAVYYCNKFGYHREYDYWGQGTQVTVSS : low polyreactivity
10) QVQLVESGGGLVQAGGSLRLSCAASGITFYYYAMGWYRQAPGKERELVAAISFRGGSTYYADSVKGRFTISRDNAKNTVYLQMNSLIPEDTAVYYCAAETSPSWYTWVTYDYWGQGTQVTVSS : high polyreactivity
11) QVQLVESGGGLVQAGGSLRLSCAASGIIFASNGMGWYRQAPGKERELVAAISSGGSTNYADSVKGLFTISRDHAKNTVYLQMNSLKPEDTAVYYCAADRWDRDYDYWGQGTQVTVSS : low polyreactivity

Values from the nanobody polyreactivity screen of Harvey et al. (2022)
